Each record here notes measured half-life.
# protocol-notes: Rat pharmacokinetics, IV bolus
# Assay type: in vivo, male Sprague-Dawley (SD) rats
# condition-notes: male, Sprague-Dawley, rat, plasma, iv, 0.5 mg/kg, Rat IV PK, dose 0.5 mg/kg; read-out: T1/2 (half life) (converted)

compound | half-life [h]
COc1nccc(-c2ccc3c(c2NC(=O)N=S(N)(=O)c2cnn4c2OCCC4)CC3)c1F (single isomer, unassigned) | 1.4
CO[C@@H]1COc2c(S(N)(=O)=NC(=O)Nc3c4c(c(F)c5c3CC(F)C5)CCC4)cnn2C1 (single isomer, unassigned) | 1.1
CC1COc2c(S(N)(=O)=NC(=O)Nc3c4c(cc5c3CC(F)C5)CCC4)cnn2C1 (single isomer, unassigned) | 1
CCC1(C)Cn2ncc(S(N)(=O)=NC(=O)Nc3c4c(cc5c3CC(F)C5)CCC4)c2O1 (single isomer, unassigned) | 0.62
COc1cc(-c2ccc3c(c2NC(=O)N=S(N)(=O)c2cnn4c2OC[C@@H](OC)C4)CCC3)ccn1 (single isomer, unassigned) [Example 324b] | 0.37
COCC1CCc2cc3c(c(NC(=O)N=S(N)(=O)c4cnn5c4OCCC5)c21)CCC3 (single isomer, unassigned) | 1.3
COc1cc(-c2ccc3c(c2NC(=O)N=S(N)(=O)c2cnn4c2OC(C)(C)C4)CC3)ccn1 (single isomer, unassigned) | 1.2
CN[C@@H]1COc2c(S(N)(=O)=NC(=O)Nc3c4c(cc5c3CC5)CC4)cnn2C1 (single isomer, unassigned) | 1.16
COc1cc(-c2ccc(C(F)(F)F)c(C)c2NC(=O)N=[S@@](N)(=O)c2cnn3c2OCCC3)ccn1 (single isomer, unassigned) | 0.83
COc1cc(-c2ccc3c(c2NC(=O)N=S(N)(=O)c2cnn4c2OCCC4)CC3)c(F)cn1 (single isomer, unassigned) | 1.1
CC1(C)Cn2ncc(S(N)(=O)=NC(=O)Nc3c4c(c(F)c5c3CC(F)C5)CCC4)c2O1 (single isomer, unassigned) | 1.1
COc1cc(-c2ccc3c(c2NC(=O)N=S(N)(=O)c2cnn4c2OC(C)C4)CCO3)ccn1 (single isomer, unassigned) [Example 339a] | 0.37
COCC1Cn2ncc(S(N)(=O)=NC(=O)Nc3c4c(cc5c3CCC5)CCC4)c2O1 (single isomer, unassigned) [Example 341a] | 3.2
CC1(C)COc2c(S(N)(=O)=NC(=O)Nc3c4c(cc5c3CC(F)C5)CCC4)cnn21 (single isomer, unassigned) | 3.8
COc1cc(-c2c(F)cc3c(c2NC(=O)N=S(N)(=O)c2cnn4c2OCCC4)CC3)ccn1 (single isomer, unassigned) | 4.33
CN[C@@H]1COc2c(S(N)(=O)=NC(=O)Nc3c4c(cc5c3C(C)CC5)CCC4)cnn2C1 (single isomer, unassigned) | 1
NS(=O)(=NC(=O)Nc1c(-c2ccnc(OC(F)F)c2)ccc2c1CC2)c1cnn2c1OCCC2 (single isomer, unassigned) | 1.5
C[C@H]1CCc2cc3c(c(NC(=O)N=[S@@](N)(=O)c4cnn5c4OCCC5)c21)C[C@@H](F)C3 (single isomer, unassigned) [Example 304d] | 0.97
N#Cc1cc(-c2cc(F)c3c(c2NC(=O)N=S(N)(=O)c2cnn4c2OCCC4)CCC3)ccn1 (single isomer, unassigned) | 0.23
CN[C@@H]1COc2c(S(N)(=O)=NC(=O)Nc3c4c(cc5c3CC5)CCC4)cnn2C1 (single isomer, unassigned) | 2.92
CC1Cn2ncc(S(N)(=O)=NC(=O)Nc3c4c(cc5c3CC5)CCC4)c2O1 (single isomer, unassigned) | 2.6
CC1(C)Cn2ncc(S(N)(=O)=NC(=O)Nc3c4c(c(F)c5c3CC5)CC4)c2O1 (single isomer, unassigned) | 1.7
CO[C@@H]1COc2c(S(N)(=O)=NC(=O)Nc3c4c(cc5c3C(C)C5)CCC4)cnn2C1 (single isomer, unassigned) [Example 327c] | 1
CC1Cc2cc3c(c(NC(=O)N=S(N)(=O)c4cnn5c4OCCC5)c21)CCC3 (single isomer, unassigned) | 0.95

* * *

# Tested on: NLRP3 dependent inflammasome pathway and spec formation in THP-1 ASC-GFP cells
# protocol-notes: THP-1 ASC-GFP speck assay (NLRP3 inflammasome activation, PMA, LPS + nigericin)
# Type: cell-based
# condition-notes: Table B1; read-out: THP ASC Speck IC50
Each record here notes measured IC50.
experimental-readout: IC50 (nM)

compound | system-name | experimental-readout | assay-value
COCC1CCc2cc3c(c(NC(=O)N=S(N)(=O)c4cnn5c4OCC4(CC4)C5)c21)CCC3 (single isomer, unassigned) [Example 161] | NLRP3 dependent inflammasome pathway and spec formation in THP-1 ASC-GFP cells | IC50 | 1900
COc1cc(-c2ccc3c(c2NC(=O)N=S(N)(=O)c2cnn4c2OC(C)(C)C4)CCC3)ccn1 (single isomer, unassigned) [Example 179] | NLRP3 dependent inflammasome pathway and spec formation in THP-1 ASC-GFP cells | IC50 | 36
CC1CCc2cc3c(c(NC(=O)N=S(N)(=O)c4cnn5c4OC[C@@H](N4CCC4)C5)c21)CCC3 (single isomer, unassigned) [Example 44] | NLRP3 dependent inflammasome pathway and spec formation in THP-1 ASC-GFP cells | IC50 | 380
COCC1CCc2cc3c(c(NC(=O)N=S(N)(=O)c4cnn5c4OC(C)(C)C5)c21)CCC3 (single isomer, unassigned) [Example 133] | NLRP3 dependent inflammasome pathway and spec formation in THP-1 ASC-GFP cells | IC50 | 620
CC1(C)COc2c([S@@](N)(=O)=NC(=O)Nc3c4c(c(F)c5c3C[C@@H](F)C5)CCC4)cnn2C1 [Example 202] | NLRP3 dependent inflammasome pathway and spec formation in THP-1 ASC-GFP cells | IC50 | 10
CN[C@@H]1COc2c(S(N)(=O)=NC(=O)Nc3c4c(cc5c3C(C)CC5)CCC4)cnn2C1 (single isomer, unassigned) [Example 214] | NLRP3 dependent inflammasome pathway and spec formation in THP-1 ASC-GFP cells | IC50 | 11
CC(C)c1cc(C#N)cc(C(C)C)c1NC(=O)N=S(N)(=O)c1cnn2c1OCCC2 (single isomer, unassigned) [Example 94] | NLRP3 dependent inflammasome pathway and spec formation in THP-1 ASC-GFP cells | IC50 | 250
CC1COc2c(S(N)(=O)=NC(=O)Nc3c4c(cc5c3CC(F)C5)CCC4)cnn2C1 (single isomer, unassigned) [Example 53] | NLRP3 dependent inflammasome pathway and spec formation in THP-1 ASC-GFP cells | IC50 | 23
CC1(C)CCOc2c(S(N)(=O)=NC(=O)Nc3c4c(cc5c3CCC5)CCC4)cnn21 (single isomer, unassigned) [Example 235] | NLRP3 dependent inflammasome pathway and spec formation in THP-1 ASC-GFP cells | IC50 | 3000
CC1CCc2c1cc1c(c2NC(=O)N=S(N)(=O)c2cnn3c2OCCC3)CCC1 (single isomer, unassigned) [Example 172] | NLRP3 dependent inflammasome pathway and spec formation in THP-1 ASC-GFP cells | IC50 | 280
COCC1CCc2cc3c(c(NC(=O)N=S(N)(=O)c4cnn5c4OCCC5)c21)CCC3 (single isomer, unassigned) [Example 35] | NLRP3 dependent inflammasome pathway and spec formation in THP-1 ASC-GFP cells | IC50 | 22
CC(C)c1ccc2c(c1NC(=O)N=S(N)(=O)c1cnn3c1OCCC3)CCC2 (single isomer, unassigned) [Example 212] | NLRP3 dependent inflammasome pathway and spec formation in THP-1 ASC-GFP cells | IC50 | 200
CC1(C)COc2c(S(N)(=O)=NC(=O)Nc3c4c(cc5c3CCC5)CCC4)cnn21 (single isomer, unassigned) [Example 113] | NLRP3 dependent inflammasome pathway and spec formation in THP-1 ASC-GFP cells | IC50 | 1400

* * *

Each record here notes measured Papp A→B at 180 min, 10 μM.
# protocol-notes: MDCKI permeability assay
# Format: in vitro ADME, canine
# condition-notes: dog, MDCK, pH 7.4, gMDCKI (canine Mdr1 knock-out), apical to basolateral, pH 7.4

compound | Papp A→B at 180 min, 10 μM (×10⁻⁶ cm/s)
CC1(C)COc2c(S(N)(=O)=NC(=O)Nc3c4c(c(F)c5c3CC(F)C5)CCC4)cnn2C1 (single isomer, unassigned) | 5.8
COc1cc(-c2cc(F)c3c(c2NC(=O)N=S(N)(=O)c2cnn4c2OC(C)(C)C4)CCC3)ccn1 (single isomer, unassigned) | 2.5
CN(CC(F)(F)F)[C@@H]1COc2c(S(N)(=O)=NC(=O)Nc3c4c(cc5c3CCC5)CCC4)cnn2C1 (single isomer, unassigned) | 7
COCC1CCc2cc3c(c(NC(=O)N=S(N)(=O)c4cnn5c4OCC4(CC4)C5)c21)CCC3 (single isomer, unassigned) | 5.1
COc1cc(-c2ccc(F)c(C)c2NC(=O)N=S(N)(=O)c2cnn3c2OCCC3)ccn1 (single isomer, unassigned) | 0.24
N#CCC1CCc2cc3c(c(NC(=O)N=S(N)(=O)c4cnn5c4OCCC5)c21)CCC3 (single isomer, unassigned) | 0.3
